Where these numbers come from: patent US9611281B2

# Protocol: Optical properties (absorption, emission, extinction coefficient) of BDP635 and derivative SBDPiRs
# Assay type: physicochemical
Decide using λabs alone. Strictly below 700 nm: Fulfilled. Equal to or above 700 nm: Not fulfilled.

Request: In the record for COc1ccc(-c2cc3c(s2)=CC2=C(C(F)(F)F)c4cc5sc(-c6ccc(OC)cc6)cc5n4[B-](F)(F)[N+]=32)cc1 [SBDPiR731] , is λabs less than 700 nm?
Result: Not fulfilled

Now consider a different compound.
Request: In the record for F[B-]1(F)n2c(cc3sc(C=Cc4ccccc4)cc32)C(C(F)(F)F)=C2C=c3sc(C=Cc4ccccc4)cc3=[N+]21 [SBDPiR755] , is λabs less than 700 nm?
Result: Not fulfilled
